Target: T1, hFc-hFasL (fusion protein of human Fc fragment and human FasL extracellular region) (human, UniProt P48023 134-281)
T1 sequence: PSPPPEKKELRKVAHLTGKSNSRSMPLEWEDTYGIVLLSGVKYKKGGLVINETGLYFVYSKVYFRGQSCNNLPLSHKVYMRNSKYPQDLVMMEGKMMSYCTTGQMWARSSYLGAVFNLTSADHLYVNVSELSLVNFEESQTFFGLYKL
Test: cell-based or functional assay
observable: Jurkat IC50(nM), FasL antigen-induced cell apoptosis
// return numeric value only (unit: nM, not printed)

>>> assay_value("humFL-M88-15 (antibody, human IgG4, V domains shown, Humanized FL-M88) VH: QVQLVQSGAEVKKPGASVKVSCKGSGYTFTDYTIHWVRQAPGQGLEWMGVISTYQGDASYNQKFKGRATMTVDKSTSTAYMELSSLRSEDTAVYYCARFPDWDYAMDYWGQGTLVTVSS VL: EIVMTQSPATLSVSPGERATLSCKASQSVDYDGDSYMNWYQQKPGQPPRLLIYAASNLESGIPARFSGSGSGTEFTLTISSLQSEDFAVYYCQQSRELPYTFGQGTKLEIK")
0.0149
>>> assay_value("humFL-M88-5 (antibody, human IgG4, V domains shown, Humanized FL-M88) VH: QVQLVQSGAEVKKPGASVKVSCKGSGYTFTDYTIHWVRQAPGQGLEWMGVISTYQGDASYNQKFKGRVTMTVDKSTSTVYMELSSLRSEDTAVYYCARFPDWDYAMDYWGQGTLVTVSS VL: EIVMTQSPATLSVSPGERATLSCKASQSVDYDGDSYMNWYQQKPGQPPRLLIYAASNLESGIPARFSGSGSGTEFTLTISSLQSEDFAVYYCQHSRELPYTFGQGTKLEIK")
0.0186

# Jurkat IC50(nM), FasL antigen-induced cell apoptosis lookup, item humFL-M88-12 (antibody, human IgG4, V domains shown, Humanized FL-M88) VH: QVQLVQSGAEVKKPGASVKVSCKASGYTFTDYTIHWVRQAPGQGLEWMGVISTYQGDASYNQKFKGRVTMTVDTSTSTVYMELSSLRSEDTAVYYCARFPDWDYAMDYWGQGTLVTVSS VL: EIVMTQSPATLSVSPGERATLSCKASQSVDYDGDSYMNWYQQKPGQAPRLLIYAASNLESGIPARFSGSGSGTEFTLTISSLQSEDFAVYYCQHSRELPYTFGQGTKLEIK
0.0234
